- experimental_target: T1, human CTLA4 (human, UniProt P16410 36-161, limits assumed)
- T1 sequence (looked up): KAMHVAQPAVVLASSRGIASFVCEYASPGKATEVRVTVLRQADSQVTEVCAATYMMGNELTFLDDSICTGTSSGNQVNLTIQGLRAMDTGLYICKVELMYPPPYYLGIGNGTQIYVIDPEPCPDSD
- test_protocol: selection of human antibodies; method not described

binder	binding result
A4 (antibody, V domains shown) VH: QVQLVESGGGLIQPGGSLRLSCAASGFSVSNNYMNWVRQAPGKGLEWVSVIYRGGSTYYADSVKGRFTISRDNSKNTLYLQMNSLRTEDTAVYYCLREGGTSGDYVNDWGQGTLVTVSS VL: QSVVTQPPSVSGAPGQRVTISCTGSSSNIGAGYDVHWYQQLPGTAPKLLIYGNKNRPSGVPDRFSGSKSGTSASLAITGLQAEDEADYYCQAYDSSLSVVFGGGTKLTVL	binds
A2 (antibody, V domains shown) VH: QMQLVQSGAEVKMPGSSVRISCKASGGSFTTHFINWVRQAPGQGLEWMGWMNPNTGNTGYAERFQGRVTLTRDTSISTAYLELSSLRSDDTAVYYCARNPAESGRFDPWGQGTLVTVSS VL: QSALTQPPSASGSPGRSVTISCTGTSNNVGGYNYVSWYQQHPGKAPKLMIYEVTKRPSGVPDRFSGSKSGNTASLTVSGLQAEDEADYYCGTWDGSLNAYVFGTGTKVTVL	binds
G12 (antibody, V domains shown) VH: EVQLVESGAEVKKPGASVKVSCKASGYTFTSYGISWVRQAPGQGLEWMGWISAYNGNTNYAQKLQGRVTMTTDTSTSTAYMELRSLRSDDTAVYYCARGPGILTGYYFDYWGQGTLVTVSS VL: EIVMTQSPSSLSASVGDRVTITCRASQGINYHLAWYQQKPGKAPKLLIYAASALQSGVPSRFSGTGSGTEFTLTISSLQPEDFATYYCQQFNTYPLTFGGGTKLEIK	binds
